- System: IGROV-1
- assay: NCI tumour cell line growth inhibition, 48 h
Calls of active or inactive are those of the source. Rule as the data show it: active = GI50 up to about 1.1 µM and inactive = higher.
measure_name: GI50

See these solved cases before continuing.
O=C1C(=O)N(c2cccc(C(F)(F)F)c2)C(=S)N1c1ccccc1
22.4 µM (inactive)
O=C(Cc1ccccc1)NN1C(=O)/C(=C\c2ccccc2)S/C1=N\c1ccccc1
> 100 µM (inactive)

Data request: Which GI50 reading was recorded for the molecule CC1(C)OP(=O)(c2ccccc2)C=C1Sc1ccc([N+](=O)[O-])cc1[N+](=O)[O-] (centres undefined) ?
Data returned: > 100 µM (inactive)

Data request: Which GI50 reading was recorded for the molecule O=C(NC(=O)c1cn(CCN(CCO)C(=O)NCCCCCCNC(=O)N(CCO)CCn2cc(C(=O)NC(=O)OCc3ccccc3)c(=O)[nH]c2=O)c(=O)[nH]c1=O)OCc1ccccc1 ?
Data returned: > 100 µM (inactive)

Data request: Which GI50 reading was recorded for the molecule O=C1OC(OCC#CCOC2OC(=O)C(Cl)=C2Cl)C(Cl)=C1Cl (centres undefined) ?
Data returned: 12.9 µM (inactive)
